- STUDY_TARGET: MHC class I allele A*0201 (A2) (Homo sapiens, UniProt P04439, D140Y/D185E/D98H/E176V/E277Q/G131W/G231S/I119V/I121R/I166T/I218V/L300P/L318F/N151K/N90K/P208A/P217A/Q86G/Q94H/R138H/R169H/T345S)
- EXPERIMENT_DESCRIPTION: iTopia peptide binding assay, A*0201
- TEST_SETTINGS: percent of positive control peptide binding; peptide at 1.11×10^−5M
I'd be grateful if you could share measured Peptide binding, MHC Class I Molecule A*0201 for these entries.

SEQUENCE_STRING | RESULT
ESLHLEDNA [Peptide 131] | 8 % of control
CAYPEKMRN [Peptide 162] | 11 % of control
NGTLAELQG [Peptide 138] | 9 % of control
DLDCDPILP [Peptide 171] | 0 % of control
NNPWVCDCH [Peptide 147] | 0 % of control
ADMVTWLKE [Peptide 152] | 6 % of control
LNLSGSRLD [Peptide 62] | 7 % of control

Read the next record carefully.
## Task Give the measured Peptide binding, MHC Class I Molecule A*0201 for YHYRYEINA [Peptide 200]
## Result 7 % of control

----------
I'd be grateful if you could share measured Peptide binding, MHC Class I Molecule A*0101 for these entries.
- STUDY_TARGET: MHC class I allele A*0101 (A1) (Homo sapiens, UniProt P04439, A114D/A174V/A182V/D101N/D185E/E176A/E190D/L180R/Q94H/R68K/S129P/T187R/V100A/V91M/W191G)
- EXPERIMENT_DESCRIPTION: iTopia peptide binding assay, A*0101
- TEST_SETTINGS: percent of positive control peptide binding; peptide at 1.11×10^−5M

For each of the sequences below, state Peptide binding, MHC Class I Molecule A*0101.
1. RRLELASNH [Peptide 107]
2. TEVPTDLPA [Peptide 42]
3. PRLTNLSSN [Peptide 205]
4. LNSADLDCD [Peptide 169]
5. LPSLRHLDL [Peptide 117]
6. ADMVTWLKE [Peptide 152]
7. AALNLSGSR [Peptide 61]

## Result
1. 0 % of control
2. 3 % of control
3. 2 % of control
4. 0 % of control
5. 0 % of control
6. 0 % of control
7. 3 % of control

## Task Give the measured Peptide binding, MHC Class I Molecule A*0101 for DCDPILPPS [Peptide 172]
## Result 0 % of control

----------
I'd be grateful if you could share measured Peptide binding, MHC Class I Molecule B*0702 for these entries.
- STUDY_TARGET: MHC class I allele B*0702 (B7) (Homo sapiens, UniProt P01889)
- EXPERIMENT_DESCRIPTION: iTopia peptide binding assay, B*0702
- TEST_SETTINGS: percent of positive control peptide binding; peptide at 1.11×10^−5M

SEQUENCE_STRING | RESULT
TEVPTDLPA [Peptide 42] | 0 % of control
ASAVSAQPP [Peptide 25] | 0 % of control
SEAARTVKC [Peptide 35] | 0 % of control
DRLTCAYPE [Peptide 160] | 3 % of control

For each of the sequences below, state Peptide binding, MHC Class I Molecule B*0702.
1. AALLAGRAL [Peptide 101]
2. EGYHYRYEI [Peptide 199]
3. VVAALLAGR [Peptide 100]
4. AELQGLPHI [Peptide 140]

## Result
59 % of control
4 % of control
7 % of control
0 % of control

----------
- STUDY_TARGET: MHC class I allele B*0702 (B7) (Homo sapiens, UniProt P01889)
- EXPERIMENT_DESCRIPTION: iScore multi-parametric analysis, B*0702
- TEST_SETTINGS: level of binding: >0.5, 0.25-0.5, <0.25
No end group written: not given here.
MEASURED_PARAMETER: iScore, MHC Class I Molecule B*0702

Worked cases, iScore, MHC Class I Molecule B*0702 given:
SEQUENCE_STRING | STUDY_TARGET | RESULT
FLASAVSAQ [Peptide 24] | MHC class I allele B*0702 (B7) (Homo sapiens, UniProt P01889) | 0
VLAQLPSLR [Peptide 115] | MHC class I allele B*0702 (B7) (Homo sapiens, UniProt P01889) | 0
VFLGIVLAL [Peptide 179, VFLGIVLAL] | MHC class I allele B*0702 (B7) (Homo sapiens, UniProt P01889) | 0
ADLSPFAFS [Peptide 78] | MHC class I allele B*0702 (B7) (Homo sapiens, UniProt P01889) | 0
VLYLNRKGI [Peptide 187] | MHC class I allele B*0702 (B7) (Homo sapiens, UniProt P01889) | 0.164
GAFARRPPL [Peptide 55] | MHC class I allele B*0702 (B7) (Homo sapiens, UniProt P01889) | 0.359
LALVLLGWV [Peptide 11] | MHC class I allele B*0702 (B7) (Homo sapiens, UniProt P01889) | 0

Read the next record carefully.
## Task Give the measured iScore, MHC Class I Molecule B*0702 for LAVLPAGAF [Peptide 52]
## Result 0.049

----------
- STUDY_TARGET: MHC class I allele B*0702 (B7) (Homo sapiens, UniProt P01889)
- EXPERIMENT_DESCRIPTION: iScore multi-parametric analysis, B*0702
- TEST_SETTINGS: level of binding: >0.5, 0.25-0.5, <0.25
No end group written: not given here.
MEASURED_PARAMETER: iScore, MHC Class I Molecule B*0702
One number for each entry.

Worked cases, iScore, MHC Class I Molecule B*0702 given:
SEQUENCE_STRING | iScore, MHC Class I Molecule B*0702
SNASVSAPS [Peptide 83] | 0
SLQTSYVFL [Peptide 176] | 0

For each of the sequences below, state iScore, MHC Class I Molecule B*0702.
1. ELILNHIVP [Peptide 89]
2. FLTGNQLAV [Peptide 49]
3. VRAGAFEHL [Peptide 67]
4. LSPFAFSGS [Peptide 79]
5. RNLTHLESL [Peptide 128]
6. FARRPPLAE [Peptide 56]
7. KWMHNIRDA [Peptide 192]

## Result
1: 0; 2: 0; 3: 0.085; 4: 0; 5: 0; 6: 0; 7: 0

For each of the sequences below, state iScore, MHC Class I Molecule B*0702.
1. SLRHLDLSN [Peptide 118]
2. VLLELNSAD [Peptide 167]
3. FEGMVVAAL [Peptide 98, FEGMVVAAL]

## Result
1: 0; 2: 0; 3: 0

----------
- STUDY_TARGET: MHC class I allele B*0702 (B7) (Homo sapiens, UniProt P01889)
- EXPERIMENT_DESCRIPTION: iTopia peptide binding assay, B*0702
- TEST_SETTINGS: percent of positive control peptide binding; peptide at 1.11×10^−5M
MEASURED_PARAMETER: Peptide binding, MHC Class I Molecule B*0702

SEQUENCE_STRING | RESULT
LDNNPWVCD [Peptide 146] | 3 % of control
HLESLHLED [Peptide 130] | 2 % of control
KGIKKWMHN [Peptide 190] | 6 % of control

For each of the sequences below, state Peptide binding, MHC Class I Molecule B*0702.
1. ETEVVQGKD [Peptide 156]
2. LGIVLALIG [Peptide 180]

## Result
1 % of control
0 % of control

For each of the sequences below, state Peptide binding, MHC Class I Molecule B*0702.
1. PALCECSEA [Peptide 32]
2. PWVCDCHMA [Peptide 148]
3. NGTLAELQG [Peptide 138]

## Result
1. 0 % of control
2. 0 % of control
3. 0 % of control

For each of the sequences below, state Peptide binding, MHC Class I Molecule B*0702.
1. AFEHLPSLR [Peptide 69]
2. IVPPEDERQ [Peptide 92]

## Result
1. 0 % of control
2. 3 % of control

----------
- STUDY_TARGET: MHC class I allele A*0201 (A2) (Homo sapiens, UniProt P04439, D140Y/D185E/D98H/E176V/E277Q/G131W/G231S/I119V/I121R/I166T/I218V/L300P/L318F/N151K/N90K/P208A/P217A/Q86G/Q94H/R138H/R169H/T345S)
- EXPERIMENT_DESCRIPTION: iTopia peptide binding assay, A*0201
- TEST_SETTINGS: percent of positive control peptide binding; peptide at 1.11×10^−5M
I'd be grateful if you could share measured Peptide binding, MHC Class I Molecule A*0201 for these entries.

SEQUENCE_STRING | RESULT
LKETEVVQG [Peptide 155] | 3 % of control

For each of the sequences below, state Peptide binding, MHC Class I Molecule A*0201.
1. ACRDHMEGY [Peptide 196]
2. EDERQNRSF [Peptide 94]
3. LDNNPWVCD [Peptide 146]
4. HLESLHLED [Peptide 130]
5. RTVKCVNRN [Peptide 37]
6. RLARLALVL [Peptide 9]
7. MRNRVLLEL [Peptide 165]

## Result
1: 8 % of control; 2: 2 % of control; 3: 0 % of control; 4: 3 % of control; 5: 12 % of control; 6: 65 % of control; 7: 6 % of control

For each of the sequences below, state Peptide binding, MHC Class I Molecule A*0201.
1. ETEVVQGKD [Peptide 156]
2. YRYEINADP [Peptide 201]
3. VVAALLAGR [Peptide 100]
4. RDVLAQLPS [Peptide 114]
5. SAQPPLPDQ [Peptide 27]
6. SEAARTVKC [Peptide 35]

## Result
1. 1 % of control
2. 0 % of control
3. 11 % of control
4. 15 % of control
5. 13 % of control
6. 1 % of control

## Task Give the measured Peptide binding, MHC Class I Molecule A*0201 for VSAPSPLVE [Peptide 85]
## Result 13 % of control
